Data credit: patent US12227482B2

Measured IC50 by item
System: A549 cells
Experiment: Cell viability (CellTiter-Glo ATP content) in A549 cells
Format: cell-based
Conditions: Homo sapiens, A549, 72 h, 72 hours treatment, cell survival by CellTiter-Glo, 2% fetal bovine serum

Worked cases, answers included:
# compound, measured property, value reported
measured = [
    ("CCCCC1C(c2ccc(F)cc2)=NN(c2cccc(C)c2)C1(C)C(=O)NCCCC(C)(C)CO (stereo not shown)", "IC50", "> 2 µM"),
    ("CCCCC1C(c2ccc(F)cc2)=NN(c2ccc(F)cc2F)C1(C)C(=O)NCCCC(C)(C)CO (stereo not shown)", "IC50", "0.5 to 1 µM"),
    ("CCCCC1C(c2ccc(F)cc2)=NN(c2ccc(F)cc2F)C1(C)C(=O)NCCOCC (stereo not shown)", "IC50", "0.5 to 1 µM"),
    ("CCCCC1C(c2ccc(F)cc2)=NN(c2ccc(F)c(OC)c2)C1(C)C(=O)NCCCOC (stereo not shown)", "IC50", "> 2 µM"),
]

Answer briefly: IC50 recorded on A549 cells for CCCCC1C(c2ccc(F)cc2)=NN(c2ccc(F)cc2F)C1(C)C(=O)NCCCOC (stereo not shown)
1 to 2 µM

Provide A549 cells IC50 reading for CCCCC1(C)C(c2ccc(F)cc2)=NN(c2ccc(F)cc2F)C1(C)C(=O)NCCCC(C)(C)CO (stereo not shown) .
> 2 µM

Recall the reported IC50 of CCCCC1C(c2ccc(F)cc2)=NN(c2ccccc2)C1(C)C(=O)NCC(C)(C)CN(C)C (stereo not shown) on A549 cells and write it down.
> 2 µM

Give measured IC50 for CCCCC1C(c2ccc(F)cc2)=NN(c2ccc(C)cc2)C1(C)C(=O)NCCOC (stereo not shown) (A549 cells).
0.25 to 0.5 µM

Enter IC50 (test system A549 cells) for CC1(C(=O)NCC(=O)N2CCOCC2)C(c2cccs2)C(c2ccc(F)cc2)=NN1c1ccc(F)cc1F (stereo not shown)
> 2 µM

Write down measured IC50 (A549 cells) for this compound. COCCNC(=O)C1(C)C(c2cccs2)C(c2ccc(F)cc2)=NN1c1ccc(C)cc1 (stereo not shown)
0.25 to 0.5 µM

Look up and report IC50, with A549 cells as system, for CCCCC1C(c2ccc(F)cc2)=NN(c2ccc(F)cc2F)C1(C)C(=O)NCCC#N (stereo not shown)
1 to 2 µM

# return IC50 for CCCCC1C(c2ccc(F)cc2)=NN(c2ccccc2)C1(C)C(=O)NCCCCO (stereo not shown) , test system: A549 cells
> 2 µM

Look up A549 cells data: IC50 of CC(C)(CO)CCCNC(=O)C1(C)C(c2ccoc2)C(c2ccc(F)cc2F)=NN1c1ccc(F)cc1F (stereo not shown) , then report it.
0.5 to 1 µM

Please report the measured IC50 for CCCCC1C(c2ccc(F)cc2)=NN(c2ccccc2)C1(C)C(=O)NCC(C)N(C)C (stereo not shown) tested on A549 cells.
> 2 µM

Report value only: IC50, A549 cells, CCCCC1C(c2ccc(F)cc2)=NN(c2ccc(F)cc2F)C1(C)C(=O)NCC(=O)O (stereo not shown)
> 2 µM

For A549 cells, give the measured IC50 of the entry CCCCC1C(c2ccc(F)cc2F)=NN(c2ccccc2)C1(C)C(=O)NCCCC(C)(C)CO (stereo not shown)
> 2 µM
